System: primary human fibroblasts derived from IPF patients (LL29 cells)
Experiment: Inhibition of fibrosis (αSMA) in TGF-β1 treated primary human fibroblasts from IPF patients
Format: cell-based
Conditions: Fibroblast, 96 h, TGF-β1 20 ng/mL, 4 days, % αSMA positive cells
Each record is given yes if its reported EC50 is strictly below 0.3 nM. Records at or above 0.3 nM are given no.

>>> class_name("CC(C)C(=O)Nc1cncc(-c2ccc3[nH]nc(-c4nc5c(N6CCN(C)CC6)ccnc5[nH]4)c3c2)c1")
"no"
>>> class_name("CN(C)CCNc1cc(F)cc(-c2ccnc3[nH]c(-c4n[nH]c5ccc(-c6cncc(CNCC7CCCC7)c6)cc45)nc23)c1")
"no"
>>> class_name("Fc1cccc(-c2ccnc3[nH]c(-c4n[nH]c5ccc(-c6cncc(OC7CCNCC7)c6)cc45)nc23)c1")
"no"
>>> class_name("CN1CCN(c2ccnc3[nH]c(-c4n[nH]c5ccc(-c6cncnc6)cc45)nc23)CC1")
"no"
>>> class_name("CN(C)Cc1cncc(-c2ccc3[nH]nc(-c4nc5c(-c6cccs6)ccnc5[nH]4)c3c2)c1")
"yes"
>>> class_name("CN(C)c1cncc(-c2ccc3[nH]nc(-c4nc5c(-c6cccc(F)c6)ccnc5[nH]4)c3c2)c1")
"yes"
>>> class_name("c1cncc(-c2ccnc3[nH]c(-c4n[nH]c5ccc(-c6cncc(CN7CCCCC7)c6)cc45)nc23)c1")
"yes"
>>> class_name("CC(C)(C)C(=O)Nc1cncc(-c2ccc3[nH]nc(-c4nc5c(-c6cccs6)ccnc5[nH]4)c3c2)c1")
"yes"

Req: Please indicate whether the reported EC50 of CC(C)C(=O)Nc1cncc(-c2ccc3[nH]nc(-c4nc5c(-c6ccsc6)ccnc5[nH]4)c3c2)c1 is strictly below 0.3 nM.
Resp: no

Req: Please indicate whether the reported EC50 of c1ccc(CNCc2cncc(-c3ccc4[nH]nc(-c5nc6c(-c7ccsc7)ccnc6[nH]5)c4c3)c2)cc1 is strictly below 0.3 nM.
Resp: no

Req: Please indicate whether the reported EC50 of Cc1cn(-c2ccnc3[nH]c(-c4n[nH]c5ccc(-c6cncc(NC(=O)C7CCC7)c6)cc45)nc23)cn1 is strictly below 0.3 nM.
Resp: yes
